tested on: HCC827 (exon 19 deletion mutation); assay: Cell antiproliferative assay (CTG, 72 h), HCC827; format: cell-based, human; conditions: Homo sapiens, HCC827, 72 h, Table 2, HCC827 cells
measurement_name: IC50

Record excerpt, results attached:
{"compound": "CNC(=O)c1ccccc1Nc1nc(Nc2ccc(N3CCN(C(=O)CN4CCC(c5ccc(NC6CCC(=O)NC6=O)cc5)C(F)(F)C4)CC3)cc2OC)ncc1Br (centres unmarked)", "measurement_name": "IC50", "endpoint_result": "10 to 100 nM"}
{"compound": "O=C1CCC(Nc2ccc(C3CCN(CC(=O)N4CCN(c5ccc(-c6cc(F)c7c(c6)C(=O)N(C(C(=O)Nc6nccs6)c6ncn8c6CCC8)C7)cc5)CC4)CC3)cc2)C(=O)N1 (centres unmarked) [Comparative Compound 1, reference compound]", "measurement_name": "IC50", "endpoint_result": "≥ 1000 nM"}
{"compound": "COc1cc(N2CCN(C(=O)CN3CCC(c4ccc(NC5CCC(=O)NC5=O)cc4)CC3)CC2)ccc1Nc1ncc(Cl)c(Nc2ccccc2P(C)(C)=O)n1 (centres unmarked)", "measurement_name": "IC50", "endpoint_result": "100 to 1000 nM"}
{"compound": "COc1cc(N2CCN(CCN3CCC(c4ccc(NC5CCC(=O)NC5=O)cc4)CC3)CC2)ccc1Nc1ncc(Cl)c(Nc2ccccc2C(C)=O)n1 (centres unmarked)", "measurement_name": "IC50", "endpoint_result": "100 to 1000 nM"}

# ---- query compound ----
Kindly note the recorded IC50 for COc1cc(N2CC(NC(=O)CN3CCC(c4ccc(NC5CCC(=O)NC5=O)cc4)CC3)C2)ccc1Nc1ncc(Cl)c(Nc2ccccc2C(C)=O)n1 (centres unmarked) , which is 100 to 1000 nM

* * *

test system: H1975 (EGFR L858R/T790M double mutation); assay: Cell antiproliferative assay (CTG, 72 h), H1975; assay type: cell-based, human; conditions: Homo sapiens, NCI-H1975, 72 h, Table 2, H1975 cells
Here the recorded IC50 is given for each entry.

molecule COc1cc(N2CCN(C(=O)CN3CCC(c4ccc(NC5CCC(=O)NC5=O)cc4F)CC3)CC2)ccc1Nc1ncc(Cl)c(Nc2ccccc2)n1 (stereo not drawn) [Compound T-04] , IC50 observed: 10 to 100 nM

Given item COc1cc(N2CCC(N3CCN(C(=O)CN4CCC(c5ccc(NC6CCC(=O)NC6=O)cc5)CC4)CC3)CC2)ccc1Nc1ncc(Cl)c(Nc2ccccc2N(C)S(C)(=O)=O)n1 (stereo not drawn) [Compound T-211] , the value recorded as its IC50 is 10 to 100 nM

IC50 reading for COc1cc(N2CCC[C@H](NC(=O)CN3CCC(c4ccc(NC5CCC(=O)NC5=O)cc4)CC3)C2)ccc1Nc1ncc(Cl)c(Nc2ccccc2C(C)=O)n1 (stereo partly drawn) [Compound T-166] : 100 to 1000 nM

Value of measured IC50 for the entry COc1cc(N2CCN(C(=O)CN3CCC(c4ccc(NC5CCC(=O)NC5=O)cc4)CC3)CC2)ccc1Nc1ncc(Cl)c(Nc2cccc3c2C(=O)N(C)C3)n1 (stereo not drawn) [Compound T-268] : 10 to 100 nM

IC50 in this record for COc1cc(OC2CCN(C(=O)CN3CCC(c4ccc(NC5CCC(=O)NC5=O)cc4)CC3)CC2)ccc1Nc1ncc(Cl)c(Nc2ccccc2C(C)=O)n1 (stereo not drawn) [Compound T-214] : 100 to 1000 nM

Looking up COc1cc(N2CCN(C(=O)CN3CCC(c4ccc(NC5CCC(=O)NC5=O)cc4)CC3)CC2)c(C#N)cc1Nc1ncc(Br)c(Nc2ccccc2C(C)=O)n1 (stereo not drawn) [Compound T-286] , I see its IC50 listed as 10 to 100 nM
